- Tested target: T1, human APJ receptor (human, UniProt P35414 1-380)
- T1 sequence (looked up): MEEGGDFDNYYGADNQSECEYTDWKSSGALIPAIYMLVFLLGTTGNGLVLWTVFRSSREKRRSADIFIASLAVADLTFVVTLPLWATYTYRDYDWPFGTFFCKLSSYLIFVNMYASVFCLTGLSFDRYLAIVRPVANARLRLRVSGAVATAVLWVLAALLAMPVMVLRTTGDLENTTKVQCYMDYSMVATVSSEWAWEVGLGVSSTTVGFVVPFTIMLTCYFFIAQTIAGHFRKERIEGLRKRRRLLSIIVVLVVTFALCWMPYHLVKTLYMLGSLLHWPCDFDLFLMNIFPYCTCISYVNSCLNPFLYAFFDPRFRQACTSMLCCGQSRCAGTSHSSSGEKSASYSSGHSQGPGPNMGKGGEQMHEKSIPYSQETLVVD
- Assay overview: cell-based or functional assay
Starred links: 1 amine or outer side, 2 acyl side, 3 side chain; linkers in the order of their positions; H or OH if unused. Non-standard residues stand in square brackets, D forms with d. Primed or numbered codes have the meaning given here. No end group written: not given here. *: point of attachment. rhArg = homoarginine with ψ(CH2NH) reduced amide bond, N=C(N)NCCCC[C@@H](C[*:2])N[*:1]; rSer = serine with ψ(CH2NH) reduced amide bond, C(O[*:3])[C@@H](C[*:2])N[*:1]; dBip = N[C@H](Cc1ccc(-c2ccccc2)cc1)C(=O)O; Oic = O=C(O)[C@@H]1C[C@@H]2CCCC[C@@H]2N1; Phe(4-Cl) = N[C@@H](Cc1ccc(Cl)cc1)C(=O)O; Phe(4-I) = N[C@@H](Cc1ccc(I)cc1)C(=O)O; γGlu = O=C(O)[C@H](CCC(=O)[*:2])N[*:1]; Tridecanoyl = CCCCCCCCCCCCC(=O)*; hArg = N=C(N)NCCCC[C@H](N)C(=O)O; β3hR = N=C(N)NCCC[C@H](N)CC(=O)O; Cha = N[C@@H](CC1CCCCC1)C(=O)O; Nle = CCCC[C@H](N)C(=O)O; Orn = NCCC[C@H](N)C(=O)O; Pip′ = not defined here; AEEA = NCCOCCOCC(=O)O; BLeu = β-leucine
Label True when EC50 Human APJ Receptor < 200 pM; otherwise False.

Sample answers from the record:
{"columns": ["Binder", "Assigned label"],
 "data": [
  ["Ac-[Orn]F[hArg][hArg]Q[hArg]P[hArg][Cha][rSer]HKG[Oic][Nle]P[Phe(4-Cl)]-OH (also: reduced amide bond at Ser10 (rSer)) [apelin polypeptide SEQ ID NO: 43]", "False"],
  ["[Orn]F[hArg][hArg]Q[hArg]P[hArg][Cha]SHKG[Pip′][Nle]P[Phe(4-Cl)] [apelin polypeptide SEQ ID NO: 707]", "False"],
  ["Tridecanoyl-[γGlu][AEEA][AEEA][hArg][dQ][hArg]P[dR][BLeu]SHKG[Oic][Phe(4-I)]P[dBip]-OH [apelin polypeptide SEQ ID NO: 180]", "False"],
  ["Ac-[Orn]F[hArg][hArg]Q[rhArg]P[hArg][Cha]SHKG[Oic][Nle]P[Phe(4-Cl)]-OH (also: reduced amide bond (CH2NH) at residue 6) [apelin polypeptide SEQ ID NO: 38]", "True"]
]}

Q. Bench note: check whether [Orn]F[hArg][hArg]Q[β3hR]P[hArg][Cha]SHKG[Oic][Nle]P[Phe(4-Cl)] [apelin polypeptide SEQ ID NO: 693] shows EC50 Human APJ Receptor below 200 pM
A. False

Origin of values: patent US10941182
